system: A549; assay: Antiproliferative activity against human A549 cells after 48 hrs by MTT assay; type: functional, cell-based; settings: A549, 48 h
property.measured: IC50 (µM)

| molecule | system.name | property.measured | obs.value |
| --- | --- | --- | --- |
| COc1cc(CO)c(Br)c(Br)c1OCCCO[C@@H]1O[C@H](CO)[C@@H](O)[C@H]1O | A549 | IC50 | 23.6 |
| COc1cc(COC(C)C)c(Br)c(Br)c1OCCCO[C@@H]1O[C@H](CO)[C@@H](O)[C@H]1O | A549 | IC50 | 11.4 |
